Source of measurements: patent US20110183978A1

# run description: physchem
# condition notes: pH 2.3, LogP (pH 2.3)
measure name: chromatographic logP

{"compound": "COCCn1cc(-c2ccnc(N)c2)c(-c2ccc(F)cc2)n1 [[III-2]]", "chromatographic logP": 0.98}
{"compound": "COCCn1cc(Br)c(-c2ccc(F)cc2)n1 [[VI-6]]", "chromatographic logP": 3.08}
{"compound": "c1cnc2c(-c3c(-c4ccncc4)cnn3C3CCCCO3)cccc2c1 (stereo not drawn) [[X-24]]", "chromatographic logP": 1.09}
{"compound": "N#Cc1cccc(Cn2cc(Br)c(-c3ccc(F)cc3)n2)c1 [[VI-12]]", "chromatographic logP": 3.93}
{"compound": "CS(=O)(=O)c1ccc(-c2c(-c3ccncc3)cnn2C2CCCCO2)cc1 (stereo not drawn) [[X-17]]", "chromatographic logP": 0.96}
{"compound": "c1cc(-c2cnn(C3CCCCO3)c2-c2ccc(N3CCOCC3)cc2)ccn1 (stereo not drawn) [[X-15]]", "chromatographic logP": 1.26}
{"compound": "CCC(C)n1cc(Br)c(-c2ccc(F)cc2)n1 (stereo not drawn) [[VI-19]]", "chromatographic logP": 4.39}
{"compound": "Fc1ccc(-c2c(-c3ccncc3)cnn2C2CCCCO2)c2ccccc12 (stereo not drawn) [[X-3]]", "chromatographic logP": 1.72}
{"compound": "CC(c1ccccc1F)n1cc(Br)c(-c2ccc(F)cc2)n1 (stereo not drawn) [[VI-9]]", "chromatographic logP": 4.77}
{"compound": "Fc1ccc(-c2nn(Cc3ccccc3F)cc2Br)cc1 [[VI-13]]", "chromatographic logP": 4.39}

chromatographic logP measured on COc1cc(F)ccc1-c1c(-c2ccncc2)cnn1C1CCCCO1 (stereo not drawn) [[X-14]] = 1.26

For Cn1cc(-c2ccnc(N)c2)c(-c2ccc(F)cc2)n1 [[III-5]] the compound record lists chromatographic logP as 0.71

Entry Fc1ccc(-c2nn(CC3OCCO3)cc2Br)cc1 [[VI-17]] — recorded chromatographic logP = 3.01

So for Cn1nc(-c2ccc(F)cc2O)c(Br)c1OC(F)F [[VI-c-1]] , the logged chromatographic logP turned out to be 3.48

Record Fc1ccc(-c2nn(C3CC3)cc2Br)cc1 [[VI-26]] . Reported chromatographic logP: 3.59

* * *

# Tested on: Mycosphaerella graminicola
# run description: Example G: in vivo test on Mycosphaerella graminicola (wheat leaf blotch disease)
# condition notes: Zymoseptoria tritici, wheat plants sprayed 24 hours before inoculation, scored after 21 to 28 days, read-out: % Wirkungsgrad
measure name: pest or weed control at 500 ppm (%)
Reply numerically in %, unit not repeated.

Below are worked cases with known answers.
{"compound": "Fc1cccc(F)c1-c1nn(CC(F)(F)F)cc1-c1ccncc1 [Compound 12]", "pest or weed control at 500 ppm [%]": 77}
{"compound": "C#CCn1ccc2c(-c3cn(C(C)C)nc3-c3ccc(F)cc3)ccnc21 [Compound 47]", "pest or weed control at 500 ppm [%]": 77}
{"compound": "Fc1cccc(F)c1-c1nn(C2CCCC2)cc1-c1ccncc1 [Compound 16]", "pest or weed control at 500 ppm [%]": 97}

Per the records, this compound ( CC(C)(C)Cn1ncc(-c2ccncc2)c1-c1c(F)cccc1F [Compound 6] ) has pest or weed control at 500 ppm equal to 85

// pest or weed control at 500 ppm value for Fc1cccc(F)c1-c1c(-c2ccncc2)cnn1C1CCCC1 [Compound 17] : 88

* * *

Listed here are compounds together with their documented inhibition at 50 µM.
# System: Fusarium graminearum
# run description: microbe, parasite or virus in culture
# Type: cell-based
# condition notes: 72 h, read-out: % Inhibition des Pilzwachstums bei 50 μM
Write the value in % as a bare number.

{"compound": "CC(C)On1cc(-c2ccnc(NC(=O)C(C)C)c2)c(-c2ccc(F)cc2)n1 [Compound 272]", "assayed target": "Fusarium graminearum", "unit abbreviation": "%", "inhibition at 50 µM": 33}
{"compound": "CCOCCn1cc(-c2ccnc(NC(=O)CC)c2)c(-c2ccc(F)cc2)n1 [Compound 326]", "assayed target": "Fusarium graminearum", "unit abbreviation": "%", "inhibition at 50 µM": 107}
{"compound": "O=C1OCCC1n1cc(-c2ccncc2)c(-c2ccc(F)cc2)n1 (stereo not shown) [Compound 142]", "assayed target": "Fusarium graminearum", "unit abbreviation": "%", "inhibition at 50 µM": 0}

Measured inhibition at 50 µM of CCC(C)n1cc(-c2ccnc(NC(=O)C3CC3)c2)c(-c2ccc(F)cc2)n1 (stereo not shown) [Compound 167] : 100

* * *

This listing pairs molecules with measured pest or weed control at 500 ppm.
# System: Alternaria solani
# run description: Example M: in vivo test on Alternaria solani (leaf blotch disease/tomato/protective)
# condition notes: 168 h, tomato, protective, 500 ppm active substance, assessed 7 days after inoculation, read-out: % Wirkungsgrad (activity level)
Enter your answer as a number in %; do not include the unit.

Use the examples below as a reference point.
{"molecule": "CCC(=O)Nc1cc(-c2cn(C(C)CC)nc2-c2ccc(F)cc2)ccn1 (stereo not shown)", "assayed target": "Alternaria solani", "unit abbreviation": "%", "pest or weed control at 500 ppm": 95}
{"molecule": "CCC(=O)Nc1cc(-c2cn(C(C)CC#N)nc2-c2ccc(F)cc2)ccn1 (stereo not shown)", "assayed target": "Alternaria solani", "unit abbreviation": "%", "pest or weed control at 500 ppm": 100}
{"molecule": "CC(C)C(=O)Nc1cc(-c2cn(C(C)CC#N)nc2-c2ccc(F)cc2)ccn1 (stereo not shown)", "assayed target": "Alternaria solani", "unit abbreviation": "%", "pest or weed control at 500 ppm": 100}
{"molecule": "CCC(C)C(=O)Nc1cc(-c2cn(CC(F)F)nc2-c2ccc(F)cc2)ccn1 (stereo not shown)", "assayed target": "Alternaria solani", "unit abbreviation": "%", "pest or weed control at 500 ppm": 100}
{"molecule": "Fc1cccc(F)c1-c1c(-c2ccncc2)cnn1C1CCC1", "assayed target": "Alternaria solani", "unit abbreviation": "%", "pest or weed control at 500 ppm": 95}
{"molecule": "COCC(=O)Nc1cc(-c2cn(CC3CC3)nc2-c2ccc(F)cc2)ccn1", "assayed target": "Alternaria solani", "unit abbreviation": "%", "pest or weed control at 500 ppm": 90}
{"molecule": "O=C(CC1CC1)Nc1cc(-c2cn(C3CC3)nc2-c2ccc(F)cc2)ccn1", "assayed target": "Alternaria solani", "unit abbreviation": "%", "pest or weed control at 500 ppm": 95}
{"molecule": "CC(C)Cn1cc(-c2ccnc(NC(=O)C(C)C)c2)c(-c2ccc(F)cc2)n1", "assayed target": "Alternaria solani", "unit abbreviation": "%", "pest or weed control at 500 ppm": 95}

Moving on to the next molecule.
Lab note: measured pest or weed control at 500 ppm of CCC(=O)Nc1cc(-c2cn(CC(F)F)nc2-c2ccc(F)cc2)ccn1 was 94

* * *

Parameter: chromatographic logP. Scope: all listed entries.
# run description: physchem
# condition notes: LogPA

{"compound": "O=C(Nc1cc(-c2cn(CC3CC3(Cl)Cl)nc2-c2ccc(F)cc2)ccn1)C1CC1 (stereo not drawn)", "chromatographic logP": 2.67}
{"compound": "CCCn1cc(-c2ccnc(NC(=O)COC)c2)c(-c2ccc(F)cc2)n1", "chromatographic logP": 2.58}
{"compound": "CCC(C)Nc1nccc(-c2cn(CC(C)C)nc2-c2ccc(F)cc2)n1 (stereo not drawn)", "chromatographic logP": 2.68}

Consider CC(=O)Nc1nccc(-c2cn(CC(C)C)nc2-c2ccc(F)cc2)n1 . Its measured chromatographic logP is 2.44

Recorded chromatographic logP (compound CCC(=O)Nc1cc(-c2c(-c3ccc(F)cc3)nn(C(C)C)c2C(F)(F)F)ccn1 ): 4.07

Just so you know, measured chromatographic logP for CC(C)Cn1cc(-c2ccnc(NCC3CC3)n2)c(-c2ccc(F)cc2)n1 came out at 2.55

Data point: CC(C)n1cc(-c2ccnc(N)n2)c(-c2ccc(F)cc2)n1 ; chromatographic logP = 1.54

Data point: CCC(=O)Nc1cc(-c2c(-c3ccc(F)cc3O)nn(C)c2OC(F)F)ccn1 ; chromatographic logP = 2.12

What the record says about CC(C)C(=O)Nc1cc(-c2c(-c3ccc(F)cc3O)nn(C)c2OC(F)F)ccn1 : chromatographic logP is 2.44

* * *

# run description: physchem
# condition notes: pH 2.7, logP (pH 2.7)
Each entry belongs to exactly one class, chosen by where its chromatographic logP falls: 1: < 2; 2: ≥ 2 and < 4; 3: ≥ 4

Previously resolved entries follow.
{"compound": "CCC(=O)Nc1nccc(-c2cn(C(C)C)nc2-c2ccc(F)cc2)n1 [[I-g-1]]", "classification": 2}
{"compound": "N#CCCn1cc(Br)c(-c2ccc(F)cc2)n1 [[VI-23]]", "classification": 2}
{"compound": "COCCn1cc(B2OC(C)(C)C(C)(C)O2)c(-c2ccc(F)cc2)n1 [[V-2]]", "classification": 2}

Challenge: Tag the class for CC(c1ccccc1F)n1cc(Br)c(-c2ccc(F)cc2)n1 (centres unmarked) [[VI-9]]
Response given: 2

Challenge: Exam item: assign CC(CC#N)n1cc(Br)c(-c2ccc(F)cc2)n1 (centres unmarked) [[VI-21]] to the correct category.
Response given: 2

Challenge: Kindly identify the class of CC(C)n1cc(-c2ccnc(N)c2)c(-c2ccc(F)cc2)n1 [[III-1]] .
Response given: 1

Challenge: Class label required: CCC(=O)Nc1cc(-c2cn(CCOC)nc2-c2ccc(F)cc2)ccn1 [[I-2]]
Response given: 1

Challenge: Returns: class label. Input: CC1(C)OB(c2cn(CC3CC3)nc2-c2ccc(F)cc2)OC1(C)C [[V-8]]
Response given: 3

Challenge: Lab note: sort CCC(C)n1cc(Br)c(-c2ccc(F)cc2)n1 (centres unmarked) [[VI-19]] into the matching chromatographic logP band.
Response given: 3

Challenge: # bin lookup: classify Fc1ccc(-c2n[nH]cc2Br)cc1 [[VII-I], 4-Bromo-3-(4-fluorophenyl)-1H-pyrazole] by its chromatographic logP
Response given: 2
